- STATED CONDITIONS: [M+H]+; instrument: DT; single field
List of collision cross section (N2) values.
ASSAY ENDPOINT: collision cross section (N2) (Å²)

>>> quantitative_readout("CCCC/C=C\\CCCCCCCC(=O)OC[C@H](COP(=O)([O-])OCC[N+](C)(C)C)OC(=O)CCCCCCCCCCCCCCCCCC")
281.49
>>> quantitative_readout("CCCCCCCCCCCCCCCCCCC(=O)O[C@H](COC(=O)CCCCCCCCCCC)COP(=O)([O-])OCC[N+](C)(C)C")
278.69
>>> quantitative_readout("CCCCCCCCCCCCC=CC[C@@H](O)[C@H](COP(=O)([O-])OCC[N+](C)(C)C)NC(=O)CCCCCCCCCCCCCCCCCCCCCCCC")
308.58
>>> quantitative_readout("CCCCCCCCCCCCC=CC[C@@H](O)[C@H](COP(=O)([O-])OCC[N+](C)(C)C)NC(=O)CCCCCCCCCCCCCCCCCCCCCCCCCC")
315.31

###

List of collision cross section (N2) values.
- STATED CONDITIONS: [M+H]+; instrument: DT; single field, calibrated with ESI Low Concentration Tuning Mix (Agilent)
ASSAY ENDPOINT: collision cross section (N2) (Å²)

>>> quantitative_readout("C[N+](C)(C)CCCC(=O)[O-]")
129.7
>>> quantitative_readout("CN1CC(=O)N=C1N")
123.2
>>> quantitative_readout("CC(=O)c1ccc(O)cc1O [2',4'-DIHYDROXYACETOPHENONE]")
127.2
>>> quantitative_readout("Nc1ccn([C@@H]2O[C@H](COP(=O)(O)OP(=O)(O)O)[C@@H](O)[C@H]2O)c(=O)n1 [CYTIDINE DIPHOSPHATE]")
175.6
>>> quantitative_readout("NCCCNCCCN")
127.6

###

- STATED CONDITIONS: [M+NH4]+; instrument: DT; single field, calibrated with Agilent tune mix (Agilent)
List of collision cross section (N2) values.
ASSAY ENDPOINT: collision cross section (N2) (Å²)

>>> quantitative_readout("CCCCCCCCCC/C=C\\CCCCCCCCCC(=O)O[C@H](COC(=O)CCCCCCCCCCC)COP(=O)(O)O[C@H]1C(O)C(O)C(O)[C@@H](O)C1O (stereo not given in full) [PI(34:1)]")
295.8
>>> quantitative_readout("CCCCCCC/C=C\\CCCCCCCC(=O)OC[C@H](COC(=O)CCCCCCCCC/C=C\\CCCCCCCCCC)OC(=O)CCCCCCC/C=C\\CCCCCCC [TG(56:3)]")
332.6
>>> quantitative_readout("CCCCC/C=C\\C/C=C\\C/C=C\\CCCCCCC(=O)O[C@H](COC(=O)CCCCCCC/C=C\\CCCCCC)COP(=O)(O)O[C@H]1C(O)C(O)C(O)[C@@H](O)C1O (stereo not given in full) [PI(36:4)]")
297.3
>>> quantitative_readout("CC/C=C\\C/C=C\\C/C=C\\CCCCCCCC(=O)OC[C@H](COC(=O)CCCCCCCCCCC/C=C\\C/C=C\\CCCCC)OC(=O)CCCCCCCCC/C=C\\CCCCCCCCCC [TG(62:6)]")
344.1
>>> quantitative_readout("CC/C=C\\C/C=C\\C/C=C\\C/C=C\\C/C=C\\CCCC(=O)O[C@H](COC(=O)CCCCCCCCCCCCCCC)COC(=O)CCCCCCCCCCCCCCCCCCCCC [TG(58:5)]")
334.6

###

- STATED CONDITIONS: [M+Na]+; instrument: DT; single field, calibrated with ESI Low Concentration Tuning Mix (Agilent)
ASSAY ENDPOINT: collision cross section (N2) (Å²)

>>> quantitative_readout("C[C@H](CCC(=O)O)[C@H]1CC[C@H]2[C@@H]3[C@H](O)C[C@@H]4C[C@H](O)CC[C@]4(C)[C@H]3C[C@H](O)[C@]12C [CHOLATE]")
197.5
>>> quantitative_readout("Nc1nc(=O)c2ncn([C@H]3C[C@H](O)[C@@H](COP(=O)(O)OP(=O)(O)O)O3)c2[nH]1")
185.2
>>> quantitative_readout("NC(=O)[C@@H]1CCCN1C(=O)[C@H](Cc1cnc[nH]1)NC(=O)[C@@H]1CCC(=O)N1")
182.4
>>> quantitative_readout("O=c1nc[nH]c2c1ncn2[C@@H]1O[C@H](COP(=O)(O)OP(=O)(O)OP(=O)(O)O)[C@@H](O)[C@H]1O [INOSINE TRIPHOSPHATE]")
197
>>> quantitative_readout("O=P(O)(O)OC[C@H]1OC(O)[C@H](O)[C@@H](O)[C@@H]1O (some centres not stated) [GLUCOSE 6-PHOSPHATE]")
158.1
>>> quantitative_readout("O=P(O)(O)OC(CO)CO [BETA-GLYCEROPHOSPHATE]")
140.5
>>> quantitative_readout("O=c1ccn([C@@H]2O[C@H](COP(=O)(O)O)[C@@H](O)[C@H]2O)c(=O)[nH]1 [URIDINE MONOPHOSPHATE]")
172.3
>>> quantitative_readout("Cc1cn([C@H]2C[C@H](O)[C@@H](CO)O2)c(=O)[nH]c1=O")
161.6
>>> quantitative_readout("NCCCNCCCN")
132.4
>>> quantitative_readout("Cc1cnc(=O)[nH]c1N")
135.5
>>> quantitative_readout("Nc1ncnc2c1ncn2[C@@H]1O[C@H](COP(=O)(O)O)[C@@H](O)[C@H]1O [ADENOSINE MONOPHOSPHATE]")
177
>>> quantitative_readout("COc1cc(CC(=O)O)ccc1O [HOMOVANILLATE]")
146.2
>>> quantitative_readout("C[C@H](CCC(=O)NCCS(=O)(=O)O)[C@H]1CC[C@H]2[C@@H]3CC[C@@H]4C[C@H](O)CC[C@]4(C)[C@H]3CC[C@]12C")
213.1
>>> quantitative_readout("CC(=O)NC1C(OP(=O)(O)OP(=O)(O)OCC2OC(n3ccc(=O)[nH]c3=O)C(O)C2O)OC(CO)C(O)C1O (configuration not stated) [URIDINE DIPHOSPHATE-N-ACETYLGALACTOSAMINE]")
218.1
>>> quantitative_readout("NCCCC[C@H](N)C(=O)O")
135.5
>>> quantitative_readout("Nc1ccn([C@@H]2O[C@H](COP(=O)(O)OP(=O)(O)O)[C@@H](O)[C@H]2O)c(=O)n1 [CYTIDINE DIPHOSPHATE]")
179.9
>>> quantitative_readout("O=C(CO)[C@@H](O)[C@H](O)[C@H](O)COP(=O)(O)O [FRUCTOSE 6-PHOSPHATE]")
154.4
>>> quantitative_readout("CSCC[C@H](NC(C)=O)C(=O)O")
150.1
>>> quantitative_readout("CSc1ncnc2nc[nH]c12")
145.1
>>> quantitative_readout("CC(C)[C@H](N)C(=O)O")
133.4
>>> quantitative_readout("Cc1ncc(CO)c(C(=O)O)c1O [4-PYRIDOXATE]")
150.2
>>> quantitative_readout("CC(=O)N[C@H]1[C@H](OP(=O)(O)OP(=O)(O)OC[C@H]2O[C@@H](n3ccc(=O)[nH]c3=O)[C@H](O)[C@@H]2O)O[C@H](CO)[C@@H](O)[C@@H]1O [URIDINE DIPHOSPHATE-N-ACETYLGLUCOSAMINE]")
218.1
>>> quantitative_readout("O=P(O)(O)OC1O[C@H](CO)[C@@H](O)[C@H](O)[C@H]1O (some centres not stated) [GLUCOSE 1-PHOSPHATE]")
158.3
>>> quantitative_readout("CSC[C@H]1O[C@@H](n2cnc3c(N)ncnc32)[C@H](O)[C@@H]1O")
172.4
>>> quantitative_readout("C[C@@H]1OC(O)[C@H](O)[C@H](O)[C@H]1O (some centres not stated)")
142.6
>>> quantitative_readout("Cc1cn([C@H]2C[C@H](O)[C@@H](COP(=O)(O)OP(=O)(O)OC3O[C@H](CO)[C@@H](O)[C@H](O)[C@H]3O)O2)c(=O)[nH]c1=O (some centres not stated)")
209.9
>>> quantitative_readout("OC[C@@H](O)[C@@H](O)[C@H](O)[C@@H](O)CO")
142.9
>>> quantitative_readout("CSCC[C@H](NC=O)C(=O)O")
145.3
>>> quantitative_readout("O=C(O)Cc1c[nH]c2ccccc12 [INDOLE-3-ACETATE]")
143.5
>>> quantitative_readout("OC[C@H]1O[C@H](O[C@H]2O[C@H](CO)[C@@H](O)[C@H](O)[C@H]2O)[C@H](O)[C@@H](O)[C@@H]1O")
175.7
>>> quantitative_readout("NC(=O)NCCC(=O)O [UREIDOPROPIONATE]")
132.4
>>> quantitative_readout("O=c1[nH]c(=O)c2ncn([C@@H]3O[C@H](CO)[C@@H](O)[C@H]3O)c2[nH]1")
173.3
